The values you see were collected from patent USRE50528E1.

assayed_system: EGFR mutant L858R (Homo sapiens, UniProt P00533, L858R)
Construct: truncated human JAK3, EGFR mutants such as del E746-A750; purchased Carna Biosciences
Sequence (P00533 669-1210 L858R limits assumed): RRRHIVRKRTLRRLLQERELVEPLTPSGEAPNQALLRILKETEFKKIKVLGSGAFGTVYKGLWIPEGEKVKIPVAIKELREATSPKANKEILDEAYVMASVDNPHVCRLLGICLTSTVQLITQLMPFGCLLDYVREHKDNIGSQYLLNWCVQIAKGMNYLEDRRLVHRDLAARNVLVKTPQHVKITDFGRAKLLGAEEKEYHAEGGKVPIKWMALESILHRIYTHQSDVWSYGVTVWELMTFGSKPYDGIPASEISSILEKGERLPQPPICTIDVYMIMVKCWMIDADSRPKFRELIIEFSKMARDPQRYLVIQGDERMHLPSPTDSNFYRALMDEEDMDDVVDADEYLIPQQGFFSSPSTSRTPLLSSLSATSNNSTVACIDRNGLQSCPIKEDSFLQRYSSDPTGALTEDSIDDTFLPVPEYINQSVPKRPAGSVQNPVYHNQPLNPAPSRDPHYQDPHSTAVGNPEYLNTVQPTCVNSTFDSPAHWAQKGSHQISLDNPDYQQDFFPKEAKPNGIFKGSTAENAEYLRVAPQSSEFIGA
protocol_notes: Kinase inhibition assay, EGFR L858R;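 note: truncated human EGFR L858R kinase with compound preincubation, ULight-PolyGT peptide phosphorylation read by Europium-antibody Lance detection, IC50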
Assay type: biochemical
condition_details: read-out: EGFR mutants L858R
pIC50: −log10 of the molar value.
Entries and their pIC50

1. C=CC(=O)Nc1cc(Nc2ncc(F)c(-n3cc(CN4CCC4)c(-c4ccoc4)c3)n2)c(OC)cc1N1CCOCC1 : > 7.70

stdin: Data request, read-out pIC50, for C=CC(=O)Nc1cc(Nc2ncc(C)c(-n3cc(CN4CC[C@H](O)C4)c(C)n3)n2)c(OC)cc1N1CCOCC1
stdout: > 7.70

stdin: One more molecule: C=CC(=O)Nc1cc(Nc2nccc(-n3cc(CN(C)CC)c(C4CC4)n3)n2)c(OC)cc1N1CCN(C(C)=O)CC1
stdout: > 7.70

stdin: Would you kindly repeat that for C=CC(=O)Nc1cc(Nc2ncc(C)c(-n3cc(CN(C)C)c(C(C)C)n3)n2)c(OC)cc1N1CCOCC1 ?
stdout: > 7.70

stdin: Could you do the same for C=CC(=O)Nc1cc(Nc2ncc(Cl)c(-n3cc(CN(C)C)c(C)n3)n2)c(OC)cc1N1CCOCC1 , please?
stdout: > 7.70

stdin: Try this molecule too: C=CC(=O)Nc1cc(Nc2ncc(F)c(-n3cc(C)c(CN4CCC4)c3)n2)c(OC)cc1N(C)C
stdout: > 7.70

stdin: How about this molecule: C=CC(=O)Nc1cc(Nc2nccc(-n3cc(CN4C[C@H](O)[C@H](OC)C4)c(C4CC4)n3)n2)c(OC)cc1N1CCOCC1
stdout: > 7.70

stdin: Now try C=CC(=O)Nc1cc(Nc2nccc(-n3cc(CN(C)C)c(C4CC4)n3)n2)c(OC)cc1N1CCN(C(C)=O)CC1 .
stdout: > 7.70
